Target: acyl-CoA:cholesterol acyltransferase (ACAT)
Assay: in vitro ACAT inhibition test (formation of radio-labeled cholesterol oleate from radio-labeled oleic acid in rabbit intestinal microsomes)
Conditions: tissue preparation containing rabbit intestinal microsomes; acylation of cholesterol by oleic acid; read-out: IC₅₀
pIC50: −log10 of the molar value.
Measured pIC50 accompanies every entry in the list below.
MEASUREMENT_TYPE: pIC50

{"columns": ["COMPOUND", "MEASUREMENT_TYPE", "MEASURED_VALUE"],
 "data": [
  ["CC(C)c1cccc(C(C)C)c1NC(=O)NCCc1ccccc1 [Example 6]", "pIC50", 7.06],
  ["CCCC(CCC)(CNC(=O)Nc1c(C(C)C)cccc1C(C)C)c1ccccc1 [Example 1]", "pIC50", 7.52],
  ["CC(C)c1cccc(C(C)C)c1NC(=O)N[C@H](C)c1cccc2ccccc12 [Example 12]", "pIC50", 7.46],
  ["CCCCC(CCCC)(CNC(=O)Nc1c(C(C)C)cccc1C(C)C)c1ccccc1 [Example 5]", "pIC50", 7.52],
  ["CC(C)c1cccc(C(C)C)c1NC(=O)NCCCc1ccccc1 [Example 8]", "pIC50", 6.72]
]}
